# Tested on: LG0567-F671-PDC KRAS tumor spheroid viability
# method-notes: Anticancer human tumor LG0567-F671-PDC patient-derived lung adenocarcinoma cell line growth inhibition [KRAS2]; active = viability on the fitted dose curve at most 10% of control; inactive = the rest
# measurement-conditions: second compound 3.16 µM; first compound 0.0316 µM; spheroids with HUVEC and MSC
Classes used: TRUE = active, FALSE = inactive

# molecule, assigned-category
data = [
    ("O=C(c1cc(Cc2n[nH]c(=O)c3ccccc23)ccc1F)N1CCN(C(=O)C2CC2)CC1 + C=CC(=O)N1CCN(c2nc(=O)n(-c3c(C)ccnc3C(C)C)c3nc(-c4c(O)cccc4F)c(F)cc23)C(C)C1", "FALSE"),
    ("O=C(c1cc(Cc2n[nH]c(=O)c3ccccc23)ccc1F)N1CCN(C(=O)C2CC2)CC1 + C=CC(=O)N1CCN(c2nc(OCC3CCCN3C)nc3c2CCN(c2cccc4cccc(C)c24)C3)CC1CC#N", "FALSE"),
    ("COc1cc(Nc2ncc3c(n2)-c2ccc(Cl)cc2C(c2c(F)cccc2OC)=NC3)ccc1C(=O)O + CC1OCC2(CCN(c3cnc(Sc4ccnc(N)c4Cl)c(N)n3)CC2)C1N", "FALSE"),
    ("CC1COCCN1c1cc(-c2ccnn2C)c2ccnc(-c3ccn[nH]3)c2n1 (stereo not drawn) + C=CC(=O)N1CCN(c2nc(OCC3CCCN3C)nc3c2CCN(c2cccc4cccc(C)c24)C3)CC1CC#N", "FALSE"),
    ("COc1cc2nccc(Oc3ccc(NC(=O)C4(C(=O)Nc5ccc(F)cc5)CC4)cc3)c2cc1OC + CNCc1ccccc1-c1csc(C(C)Nc2nc(C)nc3cc(OC)c(OC)cc23)c1", "TRUE"),
    ("O=C(c1cc(Cc2n[nH]c(=O)c3ccccc23)ccc1F)N1CCN(C(=O)C2CC2)CC1 + COc1cc2nc(C)nc(NC(C)c3cc(N)cc(C(F)(F)F)c3)c2cc1OC1CCOC1", "FALSE"),
    ("O=C(c1cc(Cc2n[nH]c(=O)c3ccccc23)ccc1F)N1CCN(C(=O)C2CC2)CC1 + CC1OCC2(CCN(c3cnc(Sc4ccnc(N)c4Cl)c(N)n3)CC2)C1N", "FALSE"),
    ("CC1(C)CCC(CN2CCN(c3ccc(C(=O)NS(=O)(=O)c4ccc(NCC5CCOCC5)c([N+](=O)[O-])c4)c(Oc4cnc5[nH]ccc5c4)c3)CC2)=C(c2ccc(Cl)cc2)C1 + C=CC(=O)N1CCN(c2nc(=O)n(-c3c(C)ccnc3C(C)C)c3nc(-c4c(O)cccc4F)c(F)cc23)C(C)C1", "FALSE"),
]

----------
# System: LG0567-F671-PDC KRAS tumor spheroid viability
# method-notes: Anticancer human tumor LG0567-F671-PDC cell line growth inhibition [KRAS2]; active means viability on the fitted dose curve at most 10% of control; inactive means the rest;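 also: drug exposure lasted seven days after spheroids formed for three days; 100% = DMSO vehicle control viability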
# measurement-conditions: second compound 10 µM; first compound 1 µM; spheroids with HUVEC and MSC
Outcome codes: 1 (yes) for active, 0 (no) for inactive

# compound, assigned-category
rows = [
    ("CC(=O)OC12COC1CC(O)C1(C)C(=O)C(O)C3=C(C)C(OC(=O)C(O)C(NC(=O)OC(C)(C)C)c4ccccc4)CC(O)(C(OC(=O)c4ccccc4)C21)C3(C)C (stereo not given) + C=CC(=O)N1CCN(c2nc(=O)n(-c3c(C)ccnc3C(C)C)c3nc(-c4c(O)cccc4F)c(F)cc23)C(C)C1", "0 (no)"),
    ("O=C(c1cc(Cc2n[nH]c(=O)c3ccccc23)ccc1F)N1CCN(C(=O)C2CC2)CC1 + CNCc1ccccc1-c1csc(C(C)Nc2nc(C)nc3cc(OC)c(OC)cc23)c1", "1 (yes)"),
    ("CC1(C)CCC(CN2CCN(c3ccc(C(=O)NS(=O)(=O)c4ccc(NCC5CCOCC5)c([N+](=O)[O-])c4)c(Oc4cnc5[nH]ccc5c4)c3)CC2)=C(c2ccc(Cl)cc2)C1 + CC1OCC2(CCN(c3cnc(Sc4ccnc(N)c4Cl)c(N)n3)CC2)C1N", "1 (yes)"),
    ("CC1(C)CCC(CN2CCN(c3ccc(C(=O)NS(=O)(=O)c4ccc(NCC5CCOCC5)c([N+](=O)[O-])c4)c(Oc4cnc5[nH]ccc5c4)c3)CC2)=C(c2ccc(Cl)cc2)C1 + C=CC(=O)N1CCN(c2nc(=O)n(-c3c(C)ccnc3C(C)C)c3nc(-c4c(O)cccc4F)c(F)cc23)C(C)C1", "0 (no)"),
    ("COC(=O)c1ccc2c(C(=Nc3ccc(N(C)C(=O)CN4CCN(C)CC4)cc3)c3ccccc3)c(O)[nH]c2c1 + COc1cc2nc(C)nc(NC(C)c3cc(N)cc(C(F)(F)F)c3)c2cc1OC1CCOC1", "0 (no)"),
    ("CCNC(=O)CC1N=C(c2ccc(Cl)cc2)c2cc(OC)ccc2-n2c(C)nnc21 (stereo not given) + C=CC(=O)N1CCN(c2nc(=O)n(-c3c(C)ccnc3C(C)C)c3nc(-c4c(O)cccc4F)c(F)cc23)C(C)C1", "0 (no)"),
    ("COc1cc(Nc2ncc3c(n2)-c2ccc(Cl)cc2C(c2c(F)cccc2OC)=NC3)ccc1C(=O)O + CC1OCC2(CCN(c3cnc(Sc4ccnc(N)c4Cl)c(N)n3)CC2)C1N", "1 (yes)"),
    ("CC1(C)CCC(CN2CCN(c3ccc(C(=O)NS(=O)(=O)c4ccc(NCC5CCOCC5)c([N+](=O)[O-])c4)c(Oc4cnc5[nH]ccc5c4)c3)CC2)=C(c2ccc(Cl)cc2)C1 + COc1cc2nc(C)nc(NC(C)c3cc(N)cc(C(F)(F)F)c3)c2cc1OC1CCOC1", "0 (no)"),
    ("O=C(c1cc(Cc2n[nH]c(=O)c3ccccc23)ccc1F)N1CCN(C(=O)C2CC2)CC1 + COc1cc2nc(C)nc(NC(C)c3cc(N)cc(C(F)(F)F)c3)c2cc1OC1CCOC1", "0 (no)"),
    ("CC(=O)OC12COC1CC(O)C1(C)C(=O)C(O)C3=C(C)C(OC(=O)C(O)C(NC(=O)OC(C)(C)C)c4ccccc4)CC(O)(C(OC(=O)c4ccccc4)C21)C3(C)C (stereo not given) + CC1OCC2(CCN(c3cnc(Sc4ccnc(N)c4Cl)c(N)n3)CC2)C1N", "0 (no)"),
]
